Exercise: for every item that follows, state its recorded TLR8 500 nM (averaged NF-κB-Luciferase level relative to R848 condition, fold increase).
target: TLR8 (Homo sapiens); experiment: HEK-TLR8 NF-κB-luciferase reporter, R848 or Motolimod stimulation (potentiation or inhibition); format: cell-based; parameters: expressed in transfected cells; host or cells: 293XLhTLR8 (HEK293); details: ASO 500 nM; relative to R848 only
Sequence (Q9NR97 27-1041): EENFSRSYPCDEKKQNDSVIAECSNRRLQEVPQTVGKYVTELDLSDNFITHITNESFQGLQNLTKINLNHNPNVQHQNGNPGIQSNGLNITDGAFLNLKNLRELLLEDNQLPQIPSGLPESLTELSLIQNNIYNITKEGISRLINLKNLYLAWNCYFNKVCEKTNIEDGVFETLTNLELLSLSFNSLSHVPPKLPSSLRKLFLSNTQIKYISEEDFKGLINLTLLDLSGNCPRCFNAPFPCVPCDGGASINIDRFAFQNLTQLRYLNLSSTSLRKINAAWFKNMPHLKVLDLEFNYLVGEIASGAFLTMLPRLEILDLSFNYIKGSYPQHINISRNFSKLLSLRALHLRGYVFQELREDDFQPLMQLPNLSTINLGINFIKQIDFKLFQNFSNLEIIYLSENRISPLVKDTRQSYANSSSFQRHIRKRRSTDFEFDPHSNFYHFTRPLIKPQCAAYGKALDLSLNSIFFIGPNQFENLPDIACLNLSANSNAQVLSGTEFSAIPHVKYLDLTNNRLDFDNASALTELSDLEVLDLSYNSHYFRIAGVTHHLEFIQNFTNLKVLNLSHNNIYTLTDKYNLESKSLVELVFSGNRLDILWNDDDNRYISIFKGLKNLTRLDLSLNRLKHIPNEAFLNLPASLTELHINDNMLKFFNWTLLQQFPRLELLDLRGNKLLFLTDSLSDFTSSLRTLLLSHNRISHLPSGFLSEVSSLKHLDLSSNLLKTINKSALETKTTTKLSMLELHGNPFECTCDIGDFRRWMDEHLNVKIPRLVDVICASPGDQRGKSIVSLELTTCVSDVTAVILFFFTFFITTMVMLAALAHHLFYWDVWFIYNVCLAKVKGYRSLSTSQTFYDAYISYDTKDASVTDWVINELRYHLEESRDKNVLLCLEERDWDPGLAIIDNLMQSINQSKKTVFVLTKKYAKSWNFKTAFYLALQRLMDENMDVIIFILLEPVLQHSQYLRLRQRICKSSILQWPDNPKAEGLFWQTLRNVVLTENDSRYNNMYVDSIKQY
Respond using a number only.

Measured TLR8 500 nM (averaged NF-κB-Luciferase level relative to R848 condition, fold increase) for this entry ATCTGGCAGCCCATCA (antisense; LNA-modified, pattern not given here) [CTNN2B-2516 LNA V1] on TLR8 (Homo sapiens): 2.628

// TLR8 500 nM (averaged NF-κB-Luciferase level relative to R848 condition, fold increase) (TLR8 (Homo sapiens)) for GCCATGTTTCTTCTTG (antisense; LNA-modified, pattern not given here) [MB21D1-1248 LNA KL] = 0.431

Note to self: TLR8 500 nM (averaged NF-κB-Luciferase level relative to R848 condition, fold increase) of GCCATCCACTTGATAG (antisense; LNA-modified, pattern not given here) [EGFR-2874 LNA V1] with TLR8 (Homo sapiens) was 0.681

I looked up CCTTGCACGTGGCTTC (antisense; LNA-modified, pattern not given here) [EGFR-1013 LNA V1] and its TLR8 500 nM (averaged NF-κB-Luciferase level relative to R848 condition, fold increase) for TLR8 (Homo sapiens) was 2.414

###

target: cGAS (Homo sapiens, UniProt Q8N884); assay: ISD70-driven IP-10 (and IFN-β) production in THP-1 cells, ELISA; format: cell-based; parameters: endogenous in cells; host or cells: THP-1 (undifferentiated); conditions: MOE-modified ASO at 100 nM; averaged IP-10 levels relative to ISD70 condition
Sequence (Q8N884 whole entry): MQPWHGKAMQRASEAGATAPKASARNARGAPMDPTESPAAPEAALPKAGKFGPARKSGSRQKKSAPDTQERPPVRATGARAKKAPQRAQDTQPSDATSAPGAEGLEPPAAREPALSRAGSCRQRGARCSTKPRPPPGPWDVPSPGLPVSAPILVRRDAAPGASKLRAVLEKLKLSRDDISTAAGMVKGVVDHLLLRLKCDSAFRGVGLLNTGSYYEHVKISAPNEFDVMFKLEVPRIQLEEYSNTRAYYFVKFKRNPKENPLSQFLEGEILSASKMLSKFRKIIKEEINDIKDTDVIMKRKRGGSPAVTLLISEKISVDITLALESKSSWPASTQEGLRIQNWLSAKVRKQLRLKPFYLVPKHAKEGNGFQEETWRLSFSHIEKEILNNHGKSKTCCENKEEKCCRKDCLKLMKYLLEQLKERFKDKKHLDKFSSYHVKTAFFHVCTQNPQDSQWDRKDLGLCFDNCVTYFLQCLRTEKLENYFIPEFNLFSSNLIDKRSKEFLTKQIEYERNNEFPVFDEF
Hi there, I'd appreciate the recorded cGAS 100 nM for every entry that follows.
No unit in the answer, please; the number alone is enough.

The reported cGAS 100 nM of the sequence ATGTGATGGCCTCCCATCTC (antisense; 2'-MOE modified, pattern not given here) [HPRT-333 MOE] was 0.439

cGAS 100 nM for GGTGGTCCACAACCCCTTTC (antisense; 2'-MOE modified, pattern not given here) [MB21D1-697 MOE] is 0.292

Input TCCAACACTTCGTGGGGTCC (antisense; 2'-MOE modified, pattern not given here) [HPRT-667 MOE] . Output cGAS 100 nM: 0.799

Form field cGAS 100 nM, entry CAACACTTCGTGGGGTCCTT (antisense; 2'-MOE modified, pattern not given here) [HPRT-665 MOE] : 0.686

# cGAS 100 nM (sequence: ACCCACTTGGCAGACCATCA (antisense; 2'-MOE modified, pattern not given here) [CTNN2B-1575 MOE] ) is 0.571

Notebook: GCGTATTATAGCCGATTAAC (antisense; 2'-MOE modified, pattern not given here) [NC1 2′MOE] , cGAS 100 nM read as 0.504

So, ACACTTCGTGGGGTCCTTTT (antisense; 2'-MOE modified, pattern not given here) [HPRT-663 MOE] ? Its cGAS 100 nM was 0.623

Lookup result for GGAGATTTCAGAGCAGCTTC (antisense; 2'-MOE modified, pattern not given here) [EGFR-4885 MOE] ; measured cGAS 100 nM: 0.466

cGAS 100 nM reported for this sequence CTCTTGAAGCATCGTATCAC (antisense; 2'-MOE modified, pattern not given here) [CTNN2B-3648 MOE] : 0.791

Record summary for GAACCACGTCTGCTCTAACA (antisense; 2'-MOE modified, pattern not given here) [CAMSAP1-1635 MOE] : reported cGAS 100 nM = 0.518

Looking up ACTGACTGTCTTGAGGGTTC (antisense; 2'-MOE modified, pattern not given here) [MB21D1-1483 MOE] , I found its cGAS 100 nM recorded as 0.221

Entry AATCCGCCCAAAGGGAACTG (antisense; 2'-MOE modified, pattern not given here) [HPRT-1027 MOE] , cGAS 100 nM reported as 0.494

sequence GTGTCCTTGCACGTGGCTTC (antisense; 2'-MOE modified, pattern not given here) [EGFR-1015 MOE] , cGAS 100 nM observed: 0.384

Entry under test: CGTGTCTGGAAGCTTCCTTT (antisense; 2'-MOE modified, pattern not given here) [CTNN2B-808 MOE] . Its cGAS 100 nM was 0.426

# cGAS 100 nM of TTGGCTCGGCTTGCCTACTT (antisense; 2'-MOE modified, pattern not given here) [CAMSAP1-5594 MOE] = 0.295

Item: TAGTCAAGGGCATATCCTAC (antisense; 2'-MOE modified, pattern not given here) [HPRT-732 MOE] | cGAS 100 nM: 0.848

Entry TCGCACTTCAGTCTGAGCAG (antisense; 2'-MOE modified, pattern not given here) [MB21D1-719 MOE] — recorded cGAS 100 nM = 0.305

GATGCTCCTCGGTCTCCCTT (antisense; 2'-MOE modified, pattern not given here) [CAMSAP1-1850 MOE] has a reported cGAS 100 nM of 0.413

cGAS 100 nM recorded for this sequence, GTCCAAGATCAGCAGTCTCA (antisense; 2'-MOE modified, pattern not given here) [CTNN2B-2341 MOE] , is 0.705

Sample GCGACTATACGCGCAATATG (antisense; 2'-MOE modified, pattern not given here) [NC5 2′MOE] ; cGAS 100 nM observed: 0.720

Short answer for GAGTCTCTGGAGCTTCCTCT (antisense; 2'-MOE modified, pattern not given here) [CAMSAP1-2456 MOE] : cGAS 100 nM was 0.250

The sequence listed as TGGGTTACGGCTCAGTATGG (antisense; 2'-MOE modified, pattern not given here) [CAMSAP1-4295 MOE] shows cGAS 100 nM equal to 0.432

cGAS 100 nM for GCCGCTTTTCTGTCTGGTTC (antisense; 2'-MOE modified, pattern not given here) [CTNN2B-311 MOE] is 0.401

Briefly, cGAS 100 nM measured for ATGCCATCCACTTGATAGGC (antisense; 2'-MOE modified, pattern not given here) [EGFR-2874 MOE] : 0.639

// recorded cGAS 100 nM for TGTCTTCATCGGCCCTGCCT (antisense; 2'-MOE modified, pattern not given here) [CAMSAP1-2112 MOE] : 0.557

Lab note: GGAGGTCTTGGCTTCGTGGA (antisense; 2'-MOE modified, pattern not given here) [MB21D1-524 MOE] gave cGAS 100 nM of 0.450

sequence TGTGATGGCCTCCCATCTCC (antisense; 2'-MOE modified, pattern not given here) [HPRT-332 MOE] , cGAS 100 nM observed: 0.438

###

molecular target: human TLR9 (Homo sapiens); construct: HA; host or cells: 293XL-hTLR9-HA (HEK293); test: HEK-TLR9 NF-κB-luciferase reporter, ODN2006 stimulation; assay type: cell-based; conditions: HEK-TLR9; 500 nM ASO 45 min, then 200 nM ODN2006 overnight; percentage of ODN2006 only
Sequence (Q9NR96 26-1032): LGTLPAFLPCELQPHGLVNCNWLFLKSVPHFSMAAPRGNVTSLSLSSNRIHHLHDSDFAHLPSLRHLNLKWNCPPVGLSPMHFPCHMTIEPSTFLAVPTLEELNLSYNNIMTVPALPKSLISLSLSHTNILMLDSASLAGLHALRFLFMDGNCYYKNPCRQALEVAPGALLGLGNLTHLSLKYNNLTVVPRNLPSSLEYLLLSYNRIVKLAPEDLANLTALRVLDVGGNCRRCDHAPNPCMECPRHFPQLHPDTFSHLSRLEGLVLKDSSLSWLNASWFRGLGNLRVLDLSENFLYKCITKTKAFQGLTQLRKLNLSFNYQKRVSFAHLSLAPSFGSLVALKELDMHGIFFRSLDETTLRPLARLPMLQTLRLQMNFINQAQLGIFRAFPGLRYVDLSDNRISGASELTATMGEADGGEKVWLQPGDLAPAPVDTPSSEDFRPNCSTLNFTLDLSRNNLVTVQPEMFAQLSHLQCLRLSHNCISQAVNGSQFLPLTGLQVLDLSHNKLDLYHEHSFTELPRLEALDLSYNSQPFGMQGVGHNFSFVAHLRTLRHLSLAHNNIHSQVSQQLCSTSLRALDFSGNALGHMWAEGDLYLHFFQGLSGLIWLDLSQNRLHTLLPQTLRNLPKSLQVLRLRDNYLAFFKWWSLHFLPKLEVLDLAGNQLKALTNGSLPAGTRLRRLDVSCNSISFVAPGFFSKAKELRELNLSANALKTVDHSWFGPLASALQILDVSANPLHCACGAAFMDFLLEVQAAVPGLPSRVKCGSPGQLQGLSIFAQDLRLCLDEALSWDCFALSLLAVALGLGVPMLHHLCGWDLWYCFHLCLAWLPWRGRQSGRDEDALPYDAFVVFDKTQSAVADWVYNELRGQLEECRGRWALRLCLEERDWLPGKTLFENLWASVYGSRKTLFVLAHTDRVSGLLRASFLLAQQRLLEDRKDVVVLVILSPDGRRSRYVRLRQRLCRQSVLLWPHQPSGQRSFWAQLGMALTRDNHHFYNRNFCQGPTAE
In the oligonucleotide strings, read from the 5' end, every base follows the letter of its sugar. An asterisk marks phosphorothioate; unmarked linkages are phosphodiester. Other units and linkages are bracketed, terminal groups are in braces. A string of capitals states the bases alone. d = 2'-deoxy (DNA); m = 2'-O-methyl
Response key: criterion met means TLR9-500 nM: averaged NF-κB-Luciferase relative to ODN2006 >= 50%; criterion not met means TLR9-500 nM: averaged NF-κB-Luciferase relative to ODN2006 < 50%.

Given mU*mU*mU*mG*mA*A*A*T*T*C*A*G*A*A*G*mA*mU*mU*mU*mG (mU*mU*mU*mG*mA*dA*dA*dT*dT*dC*dA*dG*dA*dA*dG*mA*mU*mU*mU*mG) [[LINC PINT|2690] , state whether its TLR9-500 nM: averaged NF-κB-Luciferase relative to ODN2006 is at least 50%.
criterion met

Quick check: does mA*mC*mC*mC*mU*T*C*T*C*T*C*T*G*G*T*mC*mC*mC*mA*mU (mA*mC*mC*mC*mU*dT*dC*dT*dC*dT*dC*dT*dG*dG*dT*mC*mC*mC*mA*mU; antisense) [[LINC-PINT]115] have TLR9-500 nM: averaged NF-κB-Luciferase relative to ODN2006 greater than or equal to 50%?
criterion not met

Reported TLR9-500 nM: averaged NF-κB-Luciferase relative to ODN2006 at or above 50%? mU*mU*mA*mG*mC*T*C*C*T*T*G*C*C*T*C*mG*mU*mU*mC*mC (mU*mU*mA*mG*mC*dT*dC*dC*dT*dT*dG*dC*dC*dT*dC*mG*mU*mU*mC*mC; antisense) [[LINC-PINT] 1222]
criterion met

Does mC*mU*mU*mG*mU*G*A*A*A*A*G*A*T*T*A*mU*mC*mU*mU*mC (mC*mU*mU*mG*mU*dG*dA*dA*dA*dA*dG*dA*dT*dT*dA*mU*mC*mU*mU*mC) [[CDKN2B-AS1]2139] have a reported TLR9-500 nM: averaged NF-κB-Luciferase relative to ODN2006 of at least 50%?
criterion not met

// inclusive: TLR9-500 nM: averaged NF-κB-Luciferase relative to ODN2006 at least 50%? input: mA*mU*mG*mA*mC*A*T*T*T*C*G*T*G*G*C*mU*mC*mC*mU*mA (mA*mU*mG*mA*mC*dA*dT*dT*dT*dC*dG*dT*dG*dG*dC*mU*mC*mC*mU*mA) [[LINC-PINT]524.1]
criterion met
